Listing of entries alongside the reported TGI.
tested on: MDA-MB-231 breast; experiment: NCI tumour cell line growth inhibition, 48 h
Just the number in µM, nothing appended.

[
  {
    "Compound": "C=CCC1(O)c2cccc(O)c2C(=O)c2cccc(O)c21 (centres undefined)",
    "Endpoint Result": 53.4
  }
]

Now turn to the next compound.
Which TGI value belongs to "Cc1cc(S(N)(=O)=O)c(S/C(=N\Nc2ccc([N+](=O)[O-])cc2)c2ccc(Cl)cc2)cc1Cl" ? 8.27

---

tested on: HL-60(TB) leukemia; assay: NCI tumour cell line growth inhibition, 48 h
Endpoint Name: TGI

Value lookup for TGI; key = "CC(C)(C)C(=O)C(c1ccc(-c2cscn2)cc1)c1ccc(-c2cscn2)cc1" > 100 µM

Would you kindly share the measured TGI for "O=C(/C=C/c1ccc(Cl)c(Cl)c1)CCN1CCN(CCC(=O)/C=C/c2ccc(Cl)c(Cl)c2)CC1" ? > 100 µM

Fill in: TGI of CC(=O)O/C(=C(/C#N)C(=O)O)C1C(C(=O)O)C(c2ccccc2[N+](=O)[O-])C=C(c2ccco2)N1c1ccncc1 (stereo not given) is ___ > 100 µM

Quick one: TGI of "Cc1ccc(NS(=O)(=O)c2cc(C)ccc2C)cc1" ? 27 µM

For the molecule OCC1CCCCN1Cc1nc2ccc(Cl)cc2[nH]1 (stereo not given) , what TGI is on record? > 100 µM
